Test: growth inhibitors of tim10-1 mutant yeast, confirmation, single concentration, luminescence, S. cerevisiae (AID 463213);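 note: tim10-1 mutant grown at permissive 25 °C to find synthetic lethal compounds; 0% = DMSO yeast wells and 100% = medium wells without yeast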
Conditions: S. cerevisiae tim10-1 ts strain growth, BacTiter-Glo, 24 h; at 20 µM; active compounds read high
Out of some 7,400 compounds screened, about 4,100 (55%) were called active. The set was probably picked from earlier hits. These entries were drawn from the full list.

molecule	inhibition / %
C#CCN1C(=O)C(O)(CC(=O)c2cc(OC)ccc2OC)c2ccccc21 (stereo not drawn)	30.6
CC(=O)Cc1nsc(NC(=O)c2csc3c2CCCC3)n1	29.6
CCOC(=O)/C=C/c1ccc(C(F)(F)F)cc1S(=O)(=O)NC(C)(C)C	29.9

FYI, the data here is from PubChem BioAssay AID463213.
